Source of measurements: PubChem BioAssay AID1259407

Test system: CCRIS mutagenicity, Ames/micronucleus/aberration tests
Experiment: CCRIS mutagenicity studies
Conditions: Test System: AMES SALMONELLA TYPHIMURIUM; Strain/Indicator: TA100; Metabolic Activation: NONE; Method: STANDARD PLATE
Active and inactive are the calls of the source. How the calls were made is not given here.
Select the correct class. Options are active, inactive and nothing else.

Please state the recorded outcome for this molecule: `CNCCCN1c2ccccc2CCc2ccccc21`
inactive

Query: recorded result category for CC1(C)C(C=C(Cl)Cl)C1C(=O)OC(C#N)c1cccc(Oc2ccccc2)c1 (stereo not drawn) in this test
inactive

Short answer needed: outcome of this test for CS(=O)(=O)N1C2c3ccccc3-c3ccccc3C21 (stereo not drawn) ?
active

Tell me the recorded outcome of this test for `O=CNc1ccc(Oc2ccccc2)cc1` .
inactive

Dear all, I need the recorded test outcome for `CCc1cc(-c2ccccc2)ccc1N` , thank you.
active

Name the outcome recorded for `Nc1ccc(N(c2ccc3ccccc3c2)c2ccc3ccccc3c2)cc1` in the assay.
inactive

Identify the outcome logged in this assay for the molecule shown: `O=c1[nH]c(=O)n([C@H]2C[C@H](O)[C@@H](CO)O2)cc1CCCl`
inactive

Please share the test call associated with `[Cl][Fe]([Cl])[Cl]` .
inactive

Outcome? `O=[N+]([O-])c1ccc(/C=C/c2ccc([N+](=O)[O-])cc2)cc1`
active

For `O=C1C=Cc2ccc3c4c(ccc1c24)C(=O)C=C3` , what call appears in the results of this test?
inactive

So what was the verdict on `CN(CCO)CCO` in this test?
inactive

Look up the recorded call for `S=C=NCCc1ccccc1` in this test.
inactive

Hey, what did the test say about C1=CC2OC2c2cccnc21 (stereo not drawn) ?
inactive

###

Test system: CCRIS mutagenicity, Ames/micronucleus/aberration tests
Experiment: CCRIS mutagenicity studies
Details: Test System: AMES SALMONELLA TYPHIMURIUM; Strain/Indicator: TA98; Metabolic Activation: NONE; Method: STANDARD PLATE
Calls of active or inactive are those of the source. No rule for the calls is given here.
Pick from Y = active, N = inactive when you respond.

What outcome does the record of this test show for `CCOC(=O)c1ccc(N(O)C=O)cc1` ?
N

Each compound tested received a call. Report the one for `O=C1CN=C(c2ccccc2)c2cc([N+](=O)[O-])ccc2N1` .
N

Dear colleague, could you share the recorded outcome for `CC(C)(C)NC[C@@H](O)COc1ccccc1C1CCCC1` when you have a moment?
Y

Could you please tell me the result logged for `O=C/C=C/C=C\c1ccc([N+](=O)[O-])cc1` in this assay?
Y

Assay outcome for `O=[N+]([O-])c1ccc2c3c(cccc13)-c1cc3ccccc3cc1-2` : what was it?
Y

Test call, this compound: `COc1ccc(-c2nc(-c3ccc(C)cc3C)[nH]c2-c2ccc(OC)cc2)cc1`
Y

What classification did `O=Cc1ccc(CO)o1` end up with in this test?
N

// param item: `COC(=O)[C@H]1[C@H]2C[C@@H]3c4[nH]c5cc(OC)ccc5c4CCN3C[C@H]2C[C@@H](OC(=O)c2cc(OC)c(OC)c(OC)c2)[C@@H]1OC` ; yields the recorded call
N

Record lookup: outcome of this test for `CCCCCCCCCCCC(=O)OOC(=O)CCCCCCCCCCC` ?
N

Tell me the recorded outcome of this test for `CC(C)(C)c1ccc(-c2ccc(N=O)cc2)cc1` .
Y

Could you please tell me the result logged for `O=[N+]([O-])O` in this assay?
N

Tell me the assay call for `Nc1ccn([C@H]2CC[C@@H](CO)O2)c(=O)n1` please.
N

Dear colleague, could you share the recorded outcome for `ClCc1cccnc1` when you have a moment?
N

// return assay outcome for `O=S(=O)(O)c1ccc(N=Nc2c(O)ccc3ccccc23)cc1`
N

Which outcome was assigned to CCC1(c2ccccc2)C(=O)N=C(O)NC1=O (stereo not given) in this test?
N

Which outcome was entered for the compound `O=[N+]([O-])c1ccc2[nH]ncc2c1` in this test?
Y

Recorded test call requested for CCOC(=O)C1C(C=C(C)C)C1(C)C (stereo not given)
N

Hi team, can someone confirm the assay call for `O=C/C=C/c1ccc([N+](=O)[O-])cc1` ?
Y

Entry `Cc1cc(O)c2c(c1)C(=O)c1cccc(O)c1C2=O` : call = ?
N

Recorded call for `Cc1ncc([N+](=O)[O-])n1C` ?
Y

What classification did `c1cc2ccc3cc4occc4c4ccc(c1)c2c34` end up with in this test?
N

Outcome logged for `CCCCOc1cc(N=Nc2ccccc2)ccc1N=Nc1c(S(=O)(=O)O)cc2ccc(N)cc2c1O` in this assay:
N

Hi, do you know how `CC(C)=C[C@H]1[C@@H](C(=O)OCc2coc(Cc3ccccc3)c2)C1(C)C` came out in this test?
N

I'd appreciate the recorded outcome for `O=Nc1c(-c2ccc([N+](=O)[O-])cc2)nc2sccn12` from this test.
Y

What did the test return for `O=C(O)c1ccco1` ?
N

Identify the outcome logged in this assay for the compound shown: `C1=Cc2c3ccccc3cc3cc4ccccc4c1c23`
Y

# fetch the recorded call for `Cc1cc(Cl)ccc1N` here
N

Dear all, I need the recorded test outcome for `N.N.O=C([O-])C1(C(=O)[O-])CCC1.[Pt+4]` , thank you.
N

Write down the call the test reported for this compound. Item: `O=[N+]([O-])c1c2c(cc3ccccc13)[C@@H](O)[C@H](O)C=C2`
Y

Tell me the assay call for `O=NN(CC(=O)O)CC(=O)O` please.
N

Look up the recorded call for `O=c1[nH]cc(F)c(=O)[nH]1` in this test.
N

Tell me the recorded outcome of this test for `CCCOc1cc(N=Nc2ccc(N(CCO)CCO)cc2)ccc1N=Nc1c(S(=O)(=O)O)cc2ccc(N)cc2c1O` .
N

Hey, what did the test say about CCC12OC1(C(=O)OC)C(=O)NC2(C)O (stereo not given) ?
N

Dear all, I need the recorded test outcome for `Nc1ccc(CCc2ccc(N)cc2)cc1` , thank you.
N

Hi, do you know how `O=C(O)/C(Cl)=C(/C(=O)O)C(Cl)Cl` came out in this test?
N

State the result this test recorded for `CN(C)CCCNc1c2ccccc2nc2cccc([N+](=O)[O-])c12` .
Y

Give the logged outcome of this assay for the following compound: CCC(CCCC(=O)O)COC(=O)c1ccccc1C(=O)O (stereo not given)
N

Per the assay record, what outcome was assigned to `C[C@]12C/C(=C/O)C(=O)C[C@@H]1CC[C@@H]1[C@@H]2CC[C@@]2(C)[C@H]1CC[C@]2(C)O` ?
N

For this compound, state the assay outcome: `Cc1cc([N+](=O)[O-])c(C)c2c1[nH]c1ccc([N+](=O)[O-])cc12`
Y

How did this test come out for `CC(C)=CCOc1c2occc2cc2ccc(=O)oc12` ?
N

// return assay outcome for `NC(=O)/N=N/C(N)=O`
N

Record request — test call for `Nc1ccc(/C=C/c2cccc(Cl)c2)cc1`
Y

Fill in: this test's call for `C=Cc1ccc(O)c(OC)c1` is ___
N

// outcome(item) with item = `Cc1ccc(NCCCl)cc1`
Y

Please state the recorded outcome for this compound: `COC(=O)C1=CCCN(N=O)C1`
Y

Recorded test outcome, item `[N-]=[N+]=NC[C@@H](O)[C@H](O)[C@H](O)[C@@H](O)C(=O)O`
N

Just curious, what result did `Cc1cccc(Nc2ccncc2S(=O)(=O)NC(=O)NC(C)C)c1` get here?
N

# lookup: test call for `C[C@@H]1C[C@@]2(C)[C@@H](CC[C@@H]3[C@@H]2CC[C@]2(C)[C@@H](O)CC[C@@H]32)CC1=O`
N

Query: recorded result category for `CCCCOc1ccc2nc3cc(Cl)ccc3c(NCCCNCCCl)c2n1` in this test
Y

In this assay, the call recorded for `COc1ccc(-c2nc(-c3ccc(OC)cc3)c(-c3ccc(OC)cc3)[nH]2)cc1` was what?
Y

###

Tested on: CCRIS mutagenicity, Ames/micronucleus/aberration tests
Experiment: CCRIS mutagenicity studies
Settings: Test System: AMES SALMONELLA TYPHIMURIUM; Strain/Indicator: TA100; Metabolic Activation: RAT, LIVER, S-9, AROCLOR 1254; Method: STANDARD PLATE
Calls of active or inactive are those of the source. How the calls were made is not given here.
Outcome (select one): true (active), false (inactive)

Assay result, entry `O=[N+]([O-])c1ccc2[nH]ncc2c1` — outcome?
true

Hi, sorry to bother you, what did the test record for Cc1cccc2c1C(C)c1ccccc1-2 (centres undefined) ?
true

// param item: `CCOC(=O)c1[nH]c2ccccc2c1N=Cc1ccc(NC(C)=O)cc1` ; yields the recorded call
false

Fill in: this test's call for `CSC(C)(C)/C=N/O` is ___
false

###

System: CCRIS mutagenicity, Ames/micronucleus/aberration tests
Experiment: CCRIS mutagenicity studies
Conditions: Test System: AMES SALMONELLA TYPHIMURIUM; Strain/Indicator: TA100; Metabolic Activation: NONE; Method: PREINCUBATION
Description: The CCRIS database contains chemical records with carcinogenicity, mutagenicity, tumor promotion, and tumor inhibition test results. It was developed by the National Cancer Institute (NCI). Data are derived from studies cited in primary journals, current awareness tools, NCI reports, and other sources. Test results have been reviewed by experts in carcinogenesis and mutagenesis. CCRIS provides historical information from the years 1985 - 2011. It is no longer updated. […]
Active and inactive are the calls of the source. No rule for the calls is given here.
Your answer must be one of the following: active, inactive

Could you check what this test reported for `CNc1ccc(O)cc1` ?
inactive

What classification did CC1OC1c1ccc(C#N)cc1 (stereo not drawn) end up with in this test?
active

Field: outcome | Entry: `Nc1ccn([C@@H]2O[C@H](CO)[C@@H](O)[C@@H]2O)c(=O)n1`
inactive

What was the test verdict on `CNc1ccc2nc(C)c(C)nc2c1C` ?
inactive

What was the test verdict on `CC(=O)Nc1ccc(Oc2ccc(N(OC(C)=O)C(C)=O)cc2)cc1` ?
active

I'd appreciate the recorded outcome for `Nc1ccc2ccccc2c1N=Nc1ccc([N+](=O)[O-])cc1` from this test.
inactive

Any idea what this test logged for `CCOC(=O)c1cc(Cc2ccc(N)c(C(=O)OCC)c2)ccc1N` ?
inactive

State the result this test recorded for `CCCCCC(N)=O` .
inactive

What was the test verdict on `CC(=O)/C=C/C1=C(C)CCCC1(C)C` ?
inactive

What classification did `CCC(=O)OCc1ccccc1[N+](=O)[O-]` end up with in this test?
inactive

// outcome(item) with item = `CCC[CH2][Sn]([CH2]CCC)([CH2]CCC)[O][Sn]([CH2]CCC)([CH2]CCC)[CH2]CCC`
inactive

Called result for `O=[N+]([O-])c1ccc(Br)c([N+](=O)[O-])c1`
active

Hello, I am checking results. What call was entered for `O=Cc1c([N+](=O)[O-])cccc1[N+](=O)[O-]` ?
active
